# assay-system: T1, human PD-1 protein (human, UniProt Q15116 25-167, limits assumed)
# T1 construct: also called human PD-1 antigen
# T1 sequence (Q15116 25-167 limits assumed): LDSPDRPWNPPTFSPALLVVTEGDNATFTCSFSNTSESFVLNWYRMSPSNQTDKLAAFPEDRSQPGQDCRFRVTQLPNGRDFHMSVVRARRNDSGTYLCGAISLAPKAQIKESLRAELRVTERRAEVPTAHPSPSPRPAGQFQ
# protocol-notes: SPR, binding kinetics to human PD-1
property-name: koff (s⁻¹)
Expressed in s⁻¹, but write only the number.

Here is how some binders turned out for koff.
binder	koff, s⁻¹
AHF16570 (antibody, V domains shown) VH: QVQLVQSGAEVKKPGASVKVSCKASGYTFTGYWMHWVRQAPGQGLEWIGMIHPNSDTTIYNWKFKNRVTMTRDTSISTAYMELSRLRSDDTAVYYCAGTDQAAWAGFWGQGTTVTVSS VL: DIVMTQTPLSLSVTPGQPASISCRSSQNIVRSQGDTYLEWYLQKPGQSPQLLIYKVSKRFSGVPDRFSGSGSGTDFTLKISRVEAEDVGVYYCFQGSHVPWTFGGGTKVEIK	3.29e-05
AHF16566 (antibody, V domains shown) VH: QVQLVQSGAEVKKPGASVKVSCKASGYTFTGYWMHWVRQAPGQGLEWIGMIHPNSDTTVYNWKFKNRVTMTRDTSISTAYMELSRLRSDDTAVYYCAGTDQAAWAAFWGQGTTVTVSS VL: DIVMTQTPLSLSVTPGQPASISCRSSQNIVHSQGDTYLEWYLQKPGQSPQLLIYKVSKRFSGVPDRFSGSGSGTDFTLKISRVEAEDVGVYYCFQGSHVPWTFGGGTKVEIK	7.53e-05
AHF16569 (antibody, V domains shown) VH: QVQLVQSGAEVKKPGASVKVSCKASGYTFTGYWMHWVRQAPGQGLEWIGMIHPNSDTTIYNWKFKNRVTMTRDTSISTAYMELSRLRSDDTAVYYCAGTDQEAWAAFWGQGTTVTVSS VL: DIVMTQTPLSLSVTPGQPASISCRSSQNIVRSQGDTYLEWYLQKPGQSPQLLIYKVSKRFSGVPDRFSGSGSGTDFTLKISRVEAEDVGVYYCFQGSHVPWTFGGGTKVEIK	6.74e-05
AHF16565 (antibody, V domains shown) VH: QVQLVQSGAEVKKPGASVKVSCKASGYTFTGYWMHWVRQAPGQGLEWIGMIHPNSDTTVYNWKFKNRVTMTRDTSISTAYMELSRLRSDDTAVYYCAGTDQEAWHGFWGQGTTVTVSS VL: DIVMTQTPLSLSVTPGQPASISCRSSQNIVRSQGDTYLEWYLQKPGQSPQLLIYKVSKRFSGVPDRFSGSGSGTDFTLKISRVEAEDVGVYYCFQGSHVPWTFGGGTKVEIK	0.000118
AHF16559 (antibody, V domains shown) VH: QVQLVQSGAEVKKPGASVKVSCKASGYTFTGYWMHWVRQAPGQGLEWIGMIHPNSDTTVYNEKFKNRVTMTRDTSISTAYMELSRLRSDDTAVYYCAGTDQAAWHAFWGQGTTVTVSS VL: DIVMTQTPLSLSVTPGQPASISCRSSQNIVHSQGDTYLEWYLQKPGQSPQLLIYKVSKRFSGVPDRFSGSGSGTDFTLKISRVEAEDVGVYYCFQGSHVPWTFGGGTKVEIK	7.62e-05
AHF16563 (antibody, V domains shown) VH: QVQLVQSGAEVKKPGASVKVSCKASGYTFTGYWMHWVRQAPGQGLEWIGMIHPNSDTTVYNWKFKNRVTMTRDTSISTAYMELSRLRSDDTAVYYCAGTDQEAWMGFWGQGTTVTVSS VL: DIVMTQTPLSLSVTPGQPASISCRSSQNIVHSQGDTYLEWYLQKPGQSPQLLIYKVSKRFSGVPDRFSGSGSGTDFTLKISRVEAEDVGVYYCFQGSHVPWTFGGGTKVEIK	3.6e-05
AHF16560 (antibody, V domains shown) VH: QVQLVQSGAEVKKPGASVKVSCKASGYTFTGYWMHWVRQAPGQGLEWIGMIHPNSDTTIYNEKFKNRVTMTRDTSISTAYMELSRLRSDDTAVYYCAGTDQEAWHGFWGQGTTVTVSS VL: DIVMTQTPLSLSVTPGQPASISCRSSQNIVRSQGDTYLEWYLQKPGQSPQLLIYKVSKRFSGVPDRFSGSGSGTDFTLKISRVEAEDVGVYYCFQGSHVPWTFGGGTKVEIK	6.74e-05
AHF16568 (antibody, V domains shown) VH: QVQLVQSGAEVKKPGASVKVSCKASGYTFTGYWMHWVRQAPGQGLEWIGMIHPNSDTTIYNWKFKNRVTMTRDTSISTAYMELSRLRSDDTAVYYCAGTDQEAWMGFWGQGTTVTVSS VL: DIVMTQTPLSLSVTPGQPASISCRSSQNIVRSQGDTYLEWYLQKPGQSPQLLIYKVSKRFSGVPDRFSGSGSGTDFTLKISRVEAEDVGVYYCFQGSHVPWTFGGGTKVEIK	3.52e-05

Value of koff reported for the binder AHF16557 (antibody, V domains shown) VH: QVQLVQSGAEVKKPGASVKVSCKASGYTFTGYWMHWVRQAPGQGLEWIGMIHPNSDTTVYNWKFKNRVTMTRDTSISTAYMELSRLRSDDTAVYYCAGTDQAAWAGFWGQGTTVTVSS VL: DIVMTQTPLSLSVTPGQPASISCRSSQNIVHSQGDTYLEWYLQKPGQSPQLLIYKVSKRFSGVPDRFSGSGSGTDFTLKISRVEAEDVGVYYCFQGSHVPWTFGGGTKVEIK is 8.68e-05

Item: AHF16558 (antibody, V domains shown) VH: QVQLVQSGAEVKKPGASVKVSCKASGYTFTGYWMHWVRQAPGQGLEWIGMIHPNSDTTTYNEKFKNRVTMTRDTSISTAYMELSRLRSDDTAVYYCAGTDQEAWHAFWGQGTTVTVSS VL: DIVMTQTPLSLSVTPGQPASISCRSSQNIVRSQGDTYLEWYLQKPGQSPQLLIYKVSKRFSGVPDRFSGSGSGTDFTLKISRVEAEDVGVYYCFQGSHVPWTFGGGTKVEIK | koff: 7.69e-05

Values from patent US20240034796A1
